# Procedure Details: Cmax in male mouse plasma
# Type: ADME, cell-free
Endpoint Name: Cmax (ng/mL)

Cc1ccc(NC(=O)c2ccc(CN3CCN(C)CC3)cc2)cc1Nc1nccc(-c2cccnc2)n1 : 921

====

# Procedure Details: Volume of distribution in human
# Type: ADME
Endpoint Name: Vd (L)

Cc1nc(Nc2ncc(C(=O)Nc3c(C)cccc3Cl)s2)cc(N2CCN(CCO)CC2)n1.O : 2.05

====

# Procedure Details: Plasma protein binding in mouse at 100 mg/kg, po administered once daily
# Type: ADME, organism-based
# Experimental Parameters: read-out: PPB (converted)
Endpoint Name: fraction unbound

Cc1nc(Nc2ncc(C(=O)Nc3c(C)cccc3Cl)s2)cc(N2CCN(CCO)CC2)n1.O [DASATINIB] : 0.04

Where these numbers come from: ChEMBL document CHEMBL5233219
